- Study System: T1, human erythropoietin receptor (EpoR) on human erythroleukemic cells (human, UniProt P19235 25-508)
- T1 sequence (looked up): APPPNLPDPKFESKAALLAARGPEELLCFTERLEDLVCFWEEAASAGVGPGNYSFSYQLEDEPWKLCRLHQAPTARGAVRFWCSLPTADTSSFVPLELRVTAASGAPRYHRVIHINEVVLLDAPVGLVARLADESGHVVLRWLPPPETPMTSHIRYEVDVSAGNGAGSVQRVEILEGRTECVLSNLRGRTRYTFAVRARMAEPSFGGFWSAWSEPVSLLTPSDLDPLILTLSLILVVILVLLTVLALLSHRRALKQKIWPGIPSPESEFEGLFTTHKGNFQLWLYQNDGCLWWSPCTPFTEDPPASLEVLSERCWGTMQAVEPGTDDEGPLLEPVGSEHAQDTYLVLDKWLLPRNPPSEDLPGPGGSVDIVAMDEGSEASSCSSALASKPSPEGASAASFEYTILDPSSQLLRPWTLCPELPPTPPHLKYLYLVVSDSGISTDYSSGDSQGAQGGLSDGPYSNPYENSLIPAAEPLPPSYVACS
- Test Description: cell-based or functional assay
// reported EC50 (cell proliferation) for each item listed
Reply numerically in pM, unit not repeated.

Consider the following illustrative entries.
Binder	EC50 (cell proliferation) / pM
Ab12.123 (antibody, IgG2, V domains shown) VH: QVQLQESGPGLVKPSETLSLTCTVSGASISSYYWSWIRQPPGKGLEWIGYIGYEGSTNYNPSLKSRVTISVDTSKNQFSLKLRSVTAADTAVYYCARERLGIGDYWGQGTLVTVSS VL: DIQLTQSPSSLSASVGDRVTITCRASQGIRNDLGWYQQKPGKAPKRLIYAASSLQSGVPSRFSGSGSGTEFTLTISSLQPEDFATYYCLQHNTYPPTFGQGTKVEIK	910
Ab12.56 (antibody, V domains shown, CDRH2 Y Y S is changed to A G T against Ab12) VH: QVQLQESGPGLVKPSETLSLTCTVSGASISSYYWSWIRQPPGKGLEWIGYIAGTGSTNYNPSLKSRVTISVDTSKNQFSLKLRSVTAADTAVYYCARERLGIGDYWGQGTLVTVSS VL: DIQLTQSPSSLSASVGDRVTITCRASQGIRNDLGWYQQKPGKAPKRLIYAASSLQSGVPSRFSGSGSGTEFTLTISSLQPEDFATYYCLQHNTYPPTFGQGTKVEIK	1170
Ab12 IgG2/K (antibody, V domains shown, Human IgG2/kappa) VH: QVQLQESGPGLVKPSETLSLTCTVSGASISSYYWSWIRQPPGKGLEWIGYIYYSGSTNYNPSLKSRVTISVDTSKNQFSLKLRSVTAADTAVYYCARERLGIGDYWGQGTLVTVSS VL: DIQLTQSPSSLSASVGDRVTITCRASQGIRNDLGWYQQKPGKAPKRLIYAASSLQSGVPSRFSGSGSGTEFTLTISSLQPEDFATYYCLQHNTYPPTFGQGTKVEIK	1290

Record Ab12.6 (antibody, V domains shown, CDRH2 Y Y S is changed to G G E against Ab12; also called H2-1-3 R2 #6) VH: QVQLQESGPGLVKPSETLSLTCTVSGASISSYYWSWIRQPPGKGLEWIGYIGGEGSTNYNPSLKSRVTISVDTSKNQFSLKLRSVTAADTAVYYCARERLGIGDYWGQGTLVTVSS VL: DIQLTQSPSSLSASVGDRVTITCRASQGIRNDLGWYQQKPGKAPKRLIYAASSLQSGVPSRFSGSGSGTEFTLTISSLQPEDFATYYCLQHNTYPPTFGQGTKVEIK , field EC50 (cell proliferation): 580

Value of measured EC50 (cell proliferation) for the entry Ab12.120 (antibody, IgG2, V domains shown) VH: QVQLQESGPGLVKPSETLSLTCTVSGASISSYYWSWIRQPPGKGLEWIGYIYYEGSTNYNPSLKSRVTISVDTSKNQFSLKLRSVTAADTAVYYCARERLGIGDYWGQGTLVTVSS VL: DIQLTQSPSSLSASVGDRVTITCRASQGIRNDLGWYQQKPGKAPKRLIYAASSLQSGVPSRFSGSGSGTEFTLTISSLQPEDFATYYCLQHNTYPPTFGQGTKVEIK : 340
